Reported values of pKi for individual entries
Target: UniProt P04585
Test: Inhibition constants against HIV-1 protease, method of Pennington et al.
Format: biochemical
Conditions: HIV-1 protease; method of Pennington et al.; read-out: Ki
Scale: negative log10 of molar concentration, which is what pKi denotes.

Example entries and their recorded answers appear below.
Entry under test: COc1ccc(S(=O)(=O)N(CC(C)C)CC(O)CNc2ccccc2C(=O)NC(C)(C)C)cc1 (stereo not shown) . Its pKi was 4.80

Entry under test: "COc1ccc(S(=O)(=O)N(CC2CCCC2)C[C@@H](O)CN(CC(C)C)C(=O)O[C@H]2CCOC2)cc1" . Its pKi was 5.89

Entry under test: "C=CCOC(=O)N(CCc1ccccc1)C[C@H](O)CN(CC1CCCC1)S(=O)(=O)c1ccc(OC)cc1" . Its pKi was 7.15

Entry under test: "COc1ccc(S(=O)(=O)N(CC2CCCC2)C[C@@H](O)CN(CCc2ccccc2)C(=O)c2cccc(O)c2C)cc1" . Its pKi was 7.18

Others:
Entry under test: COc1ccc(S(=O)(=O)N(CC(C)C)C[C@@H](O)CC(Cc2ccccc2)C(=O)NCC(C)C)cc1 (stereo partly shown) . Its pKi was 5.30

Entry under test: "Nc1cccc(S(=O)(=O)N(CC2CCCC2)C[C@@H](O)CN(CCc2ccccc2)C(=O)O[C@H]2CCOC2)c1" . Its pKi was 6.92

* * *

Target: HIV-1 protease (Human immunodeficiency virus type 1 group M subtype B, UniProt P04585)
Assay: Inhibition constants against HIV-1 protease, method of Pennington et al.
Assay type: biochemical
OBSERVED_PROPERTY: pKi
Scale: negative log10 of molar concentration, which is what pKi denotes.

Entry under test: "COc1ccc(S(=O)(=O)N(CC2CCCC2)C[C@@H](O)CN(CCc2ccccc2)C(=O)Oc2ccccc2)cc1" . Its pKi was 6.77
